System: BT-549 breast
testDetails: NCI tumour cell line growth inhibition, 48 h
Decision: TGI >= 4 µM yields label 1, all other cases yield label 0.

Solved entries:
INSERT INTO assay_data (compound, qualitativelabel) VALUES
  ('O=C(O)CCN(CCC(=O)O)c1ccc(/C=C2\SC(=S)NC2=O)cc1', 'label 1'),
  ('O=C1NN=C2C=C(c3ccc(Cl)cc3)CC(c3cccc(Cl)c3)C12 (configuration not stated)', 'label 1'),
  ('CC(C)=C1C(=O)C[C@]2(C)C[C@H]3/C(=C(/C)CCC12)CC[C@@]3(C)O (some centres not stated)', 'label 1'),
  ('COc1ccc(-c2nc(SCC(=O)N/N=C/c3ccc(O)c(OC)c3)[nH]c2-c2ccc(OC)cc2)cc1', 'label 1'),
  ('COC12C=C/C(=C(/C(=O)OCc3ccncc3)C(=O)CCCCCCCCC3(OC)C=C/C(=C(/C(=O)OCc4ccncc4)C(=O)CCCCCCCC1)O3)O2', 'label 0');

Asked: Test whether the compound CC(C)(C)NC(=O)N1N=C(c2ccccc2)C1c1ccccc1 (configuration not stated) records TGI of 4 µM or higher.
Given back: label 1

Asked: Determine whether this compound has TGI no lower than 4 µM: CCc1nc2ccc(N=NN(C)C)cc2[nH]1
Given back: label 1

Asked: Entry CCN(CC)C(=S)SS(=O)(=O)c1ccc(F)cc1 : is its TGI no less than 4 µM?
Given back: label 1

Asked: Check the entry CC(=O)Nc1ccc(-c2nc3cc(Cl)ccc3o2)cc1 : does TGI equal or exceed 4 µM?
Given back: label 1

Asked: Exam item: decide whether the reported TGI for C=Cc1c(C)c2cc3nc(cc4[nH]c(cc5nc(cc1[nH]2)C(C)=C5CCC(=O)O)c(CCC(=O)OC)c4C)[C@@]1(C)C3=CC=C(C(=O)OC)[C@H]1C(=O)OC is at least 4 µM.
Given back: label 0

====

Test system: HS 578T breast
testDetails: NCI tumour cell line growth inhibition, 48 h
Please use Condition met whenever TGI is not below 60 µM, and Condition not met whenever it is.

Consider the worked cases shown below.
INSERT INTO assay_data (compound, subjectoftest, qualitativelabel) VALUES
  ('Cc1cn(CCCCCOC(=O)NC(CCCN=C(N)N)C(=O)O)c(=O)[nH]c1=O (centres undefined)', 'HS 578T breast', 'Condition met'),
  ('S=c1[nH]n2c(COc3cccc(OCc4nnc5sc(=S)[nH]n45)c3)nnc2s1', 'HS 578T breast', 'Condition met'),
  ('COc1c(OC)c(OC)c(C(=O)/C=C/c2ccccc2)c(OC)c1OC', 'HS 578T breast', 'Condition met'),
  ('CC(C)(C)c1cc(C(=O)/C=C/C=C/c2ccccc2)cc(C(C)(C)C)c1O', 'HS 578T breast', 'Condition met'),
  ('CC(=O)OC1O[C@@H](C(C)(C)O)CC[C@@H]1[C@H]1CC[C@@]2(C)C3=C(CC[C@]12C)[C@@]1(C)C[C@@H](OC(=O)CC(C)(O)CC(=O)O)[C@H](OC(C)=O)C(C)(C)C1CC3 (some centres undefined)', 'HS 578T breast', 'Condition not met');

Asked: Is reported TGI greater than or equal to 60 µM here: COC(=O)C1C=CN(N(C)C)C2=C1C(=O)c1c(O)cccc1C2=O (centres undefined)
Given back: Condition not met

Asked: Please indicate if the recorded TGI for O=C1NN=C2C=C(c3ccc(Cl)cc3)CC(c3cccc(Cl)c3)C12 (centres undefined) meets or exceeds 60 µM.
Given back: Condition not met

Asked: # bool: TGI of COc1ccc(N2C(=O)CS(=O)(=O)C2c2cccc(Oc3ccccc3)c2)cc1 (centres undefined) >= 60 µM
Given back: Condition not met
